Molecular target: EGFR L858R/T790M (Homo sapiens (Human), UniProt P00533, L858R/T790M)
Sequence (P00533 25-1210 T790M/L858R): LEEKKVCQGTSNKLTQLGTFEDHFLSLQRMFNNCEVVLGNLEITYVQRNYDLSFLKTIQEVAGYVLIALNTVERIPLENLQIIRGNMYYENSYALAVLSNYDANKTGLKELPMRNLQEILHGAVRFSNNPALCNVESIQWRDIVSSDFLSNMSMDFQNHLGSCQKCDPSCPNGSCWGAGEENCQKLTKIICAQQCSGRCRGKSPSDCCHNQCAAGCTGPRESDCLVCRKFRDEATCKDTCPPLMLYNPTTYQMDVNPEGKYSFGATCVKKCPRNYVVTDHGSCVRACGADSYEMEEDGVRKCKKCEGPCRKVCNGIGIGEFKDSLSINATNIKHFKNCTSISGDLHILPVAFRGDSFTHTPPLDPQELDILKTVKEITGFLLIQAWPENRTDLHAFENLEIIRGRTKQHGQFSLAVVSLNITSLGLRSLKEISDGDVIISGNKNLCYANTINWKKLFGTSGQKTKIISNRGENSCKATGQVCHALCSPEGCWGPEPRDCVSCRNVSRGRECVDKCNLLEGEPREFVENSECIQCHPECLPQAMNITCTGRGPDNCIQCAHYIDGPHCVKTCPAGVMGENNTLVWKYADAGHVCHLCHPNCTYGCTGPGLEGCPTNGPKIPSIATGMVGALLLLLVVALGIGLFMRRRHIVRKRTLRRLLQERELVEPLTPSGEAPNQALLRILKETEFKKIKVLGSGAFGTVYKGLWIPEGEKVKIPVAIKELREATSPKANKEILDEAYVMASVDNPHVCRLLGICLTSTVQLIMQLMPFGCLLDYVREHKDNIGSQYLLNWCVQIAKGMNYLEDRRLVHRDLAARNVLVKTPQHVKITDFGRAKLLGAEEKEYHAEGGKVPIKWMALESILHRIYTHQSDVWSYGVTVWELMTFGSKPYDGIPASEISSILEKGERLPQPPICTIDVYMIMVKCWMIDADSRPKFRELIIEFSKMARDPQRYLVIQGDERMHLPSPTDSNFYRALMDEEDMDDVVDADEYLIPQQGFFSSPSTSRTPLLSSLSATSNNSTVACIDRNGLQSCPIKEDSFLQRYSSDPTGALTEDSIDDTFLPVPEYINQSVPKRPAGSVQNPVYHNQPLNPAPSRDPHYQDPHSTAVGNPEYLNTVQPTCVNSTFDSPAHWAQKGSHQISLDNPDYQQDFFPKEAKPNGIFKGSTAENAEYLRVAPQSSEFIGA
Assay: HTRF-based EGFR biochemical assay (L858R/T790M)
Settings: 100 μM ATP, enzyme 0.02 nM
Structures can show the parent of a compound that is named as a salt.
Endpoint: IC50 (nM)

CN1CCC(c2ccc(-c3ccc4c(c3)C(=S)N(C(c3nc5ccccc5[nH]3)c3cc(F)ccc3O)C4)cc2)CC1 (stereo not drawn) [Compound 078, dihydrochloride]    1
CCc1c(-c2ccc(C3CCN(C)CC3)cc2)ccc2ncn(C(c3nc4ccccc4[nH]3)c3cc(F)ccc3O)c(=O)c12 (stereo not drawn) [Compound 074, dihydrochloride]    1
CN1CCC(c2ccc(-c3ccc4ccn(C(c5nc6ccccc6[nH]5)c5cc(F)ccc5O)c(=O)c4c3)cc2)CC1 (stereo not drawn)    2

[I] COc1c(-c2ccc(C3CCN(C)CC3)cc2)ccc2ncn(C(c3nc4ccccc4[nH]3)c3cc(F)ccc3O)c(=O)c12 (stereo not drawn) [Compound 077, dihydrochloride]
[II] CN1CCC(c2ccc(-c3ccc4c(n3)C(=O)N([C@@H](c3nc5ccccc5[nH]3)c3cc(F)ccc3O)C4)cc2)CC1 (single isomer, unassigned)
Please indicate which entry, I or II , has the lower recorded IC50 value. Please respond with the label that marks your chosen entry. II
(II: 0.8 nM, I: 2 nM)

----------
Molecular target: EGFR L858R/T790M (Homo sapiens (Human), UniProt P00533, L858R/T790M)
Assay: HTRF-based EGFR biochemical assay (L858R/T790M)
Settings: 100 μM ATP, enzyme 0.02 nM
pIC50: −log10 of the molar value. Where a name gives a salt, the structure may show the parent alone.
Endpoint: pIC50

Cc1c(-c2ccc(C3CCN(C)CC3)cc2)ccc2cn(C(c3nc4ccccc4[nH]3)c3cc(F)ccc3O)nc12 (centres unmarked) [Compound 096, dihydrochloride]    9.10
CN(C)CCOc1ccc(-c2ccc3c(c2)C(=O)N(C(c2nc4ccccc4[nH]2)c2cc(F)ccc2O)C3)cc1 (centres unmarked) [Compound 040, hydrochloride]    8.70
COc1ccc2[nH]c(C(c3cc(F)ccc3O)N3Cc4ccc(-c5ccc(C6CCN(C)CC6)cc5)cc4C3=O)nc2c1 (centres unmarked) [Compound 048, formic acid]    8.40

[A] CN1CCC(c2ccc(-c3ccc4c(c3)C(=S)N([C@H](c3nc5ccccc5[nH]3)c3cc(F)ccc3O)C4)cc2)CC1 (single isomer, unassigned) [Compound 084]
[B] CN1CC(c2ccc(-c3ccc4c(c3)C(=O)N(C(c3nc5ccccc5[nH]3)c3cc(F)ccc3O)C4)cc2)C1 (centres unmarked) [Compound 049]
Please indicate which entry, A or B , has the lower recorded pIC50 value. Please respond with the label that marks your chosen entry. A
(A: 6.63, B: 8.70)

----------
Biological target: EGFR L858R/T790M (Homo sapiens (Human), UniProt P00533, L858R/T790M)
Experiment: HTRF-based EGFR biochemical assay (L858R/T790M)
Conditions: 100 μM ATP, enzyme 0.02 nM
Counter-ions that a name gives are not always drawn.
Endpoint: IC50 (nM)

Would you please look over these solved cases?
CN1CCC(c2ccc(-c3ccc4c(c3)C(=O)N(C(c3nc5ccccc5[nH]3)c3cccc(F)c3O)C4)cc2)CC1 (centres unmarked) [Compound 042, dihydrochloride]    13
CN1CCC(c2ccc(-c3ccc4c(n3)C(=O)N(C(c3nc5ccccc5[nH]3)c3cc(F)ccc3O)C4)cc2)CC1 (centres unmarked)    0.3
CN1CCC(c2ccc(-c3ccc4c(F)cn(C(c5nc6ccccc6[nH]5)c5cc(F)ccc5O)c(=O)c4c3)cc2)CC1 (centres unmarked)    0.4
CN1CCC2(c3ccc(-c4ccc5c(c4)C(=O)N(C(c4nc6ccccc6[nH]4)c4cc(F)ccc4O)C5)cc3)CC2C1 (centres unmarked) [Compound 079, dihydrochloride]    0.8
CN1CCC(Oc2ccc(-c3ccc4c(c3)C(=O)N(C(c3nc5ccccc5[nH]3)c3cc(F)ccc3O)C4)cc2)CC1 (centres unmarked)    8
O=C1c2cc(-c3ccc(N4CCOCC4)cc3)ccc2CN1C(c1nc2ccccc2[nH]1)c1cc(F)ccc1O (centres unmarked) [Compound 059, hydrochloride]    13

[I] CN1CCC(c2ccc(-c3ccc4c(=O)n(C(c5nc6ccccc6[nH]5)c5cc(F)ccc5O)ccc4c3)cc2)CC1 (racemic)
[II] O=C1c2cc(-c3ccc(C4CCNCC4)cc3)ccc2CN1C(c1nc2ccccc2[nH]1)c1cc(F)ccc1O (centres unmarked) [Compound 062, hydrochloride]
For the two items I and II , which reports the higher IC50 value? Please respond with the label that marks your chosen entry. I

[I] CN1CCC(c2ccc(-c3ccc4c(c3)C(=O)N(C(c3nc5ccccc5[nH]3)c3cc(Cl)ccc3O)C4)cc2)CC1 (centres unmarked) [Compound 044, hydrochloride]
[II] Nc1ccc(-c2ccc(-c3ccc4c(c3)C(=O)N(C(c3nc5ccccc5[nH]3)c3cc(F)ccc3O)C4)cc2)cn1 (centres unmarked) [Compound 061, hydrochloride]
[III] CN1CCC(c2ccc(-c3ccc4c(=O)n([C@@H](c5nc6ccccc6[nH]5)c5cc(F)ccc5O)ccc4c3)cc2)CC1 (single isomer, unassigned) [Compound 114]
hey, can you rank those molecules up there by IC50? biggest number first please Lab note: final answer is the ordered label list. II, I, III

[A] CN1CCC(c2ccc(-c3ccc4c(c3)C(=O)N(C(c3nc5cnccc5[nH]3)c3cc(F)ccc3O)C4)cc2)CC1 (centres unmarked) [Compound 015, hydrochloride]
[B] Cc1c[nH]c(C(c2cccc(F)c2)N2Cc3ccc(-c4ccc(C5CCN(C)CC5)cc4)cc3C2=O)n1 (centres unmarked)
[C] COc1cccc2[nH]c(C(c3cc(F)ccc3O)N3Cc4ccc(-c5ccc(C6CCN(C)CC6)cc5)cc4C3=O)nc12 (centres unmarked)
Please order the records by their reported IC50, lowest number first. Lab note: final answer is the ordered label list. C, A, B

[1] CN1CCC(c2ccc(-c3ccc4cn(C(c5nc6ccccc6[nH]5)c5cc(F)ccc5O)nc4c3Cl)cc2)CC1 (centres unmarked) [Compound 092, dihydrochloride]
[2] CN1CCC(n2cc(-c3ccc4c(c3)C(=O)N(C(c3nc5ccccc5[nH]3)c3cc(F)ccc3O)C4)cn2)CC1 (centres unmarked) [Compound 060, hydrochloride]
Please indicate which entry, 1 or 2 , has the lower recorded IC50 value. Please respond with the label that marks your chosen entry. 1

----------
Target: EGFR L858R (Homo sapiens (Human), UniProt P00533, L858R)
Sequence (P00533 25-1210 L858R): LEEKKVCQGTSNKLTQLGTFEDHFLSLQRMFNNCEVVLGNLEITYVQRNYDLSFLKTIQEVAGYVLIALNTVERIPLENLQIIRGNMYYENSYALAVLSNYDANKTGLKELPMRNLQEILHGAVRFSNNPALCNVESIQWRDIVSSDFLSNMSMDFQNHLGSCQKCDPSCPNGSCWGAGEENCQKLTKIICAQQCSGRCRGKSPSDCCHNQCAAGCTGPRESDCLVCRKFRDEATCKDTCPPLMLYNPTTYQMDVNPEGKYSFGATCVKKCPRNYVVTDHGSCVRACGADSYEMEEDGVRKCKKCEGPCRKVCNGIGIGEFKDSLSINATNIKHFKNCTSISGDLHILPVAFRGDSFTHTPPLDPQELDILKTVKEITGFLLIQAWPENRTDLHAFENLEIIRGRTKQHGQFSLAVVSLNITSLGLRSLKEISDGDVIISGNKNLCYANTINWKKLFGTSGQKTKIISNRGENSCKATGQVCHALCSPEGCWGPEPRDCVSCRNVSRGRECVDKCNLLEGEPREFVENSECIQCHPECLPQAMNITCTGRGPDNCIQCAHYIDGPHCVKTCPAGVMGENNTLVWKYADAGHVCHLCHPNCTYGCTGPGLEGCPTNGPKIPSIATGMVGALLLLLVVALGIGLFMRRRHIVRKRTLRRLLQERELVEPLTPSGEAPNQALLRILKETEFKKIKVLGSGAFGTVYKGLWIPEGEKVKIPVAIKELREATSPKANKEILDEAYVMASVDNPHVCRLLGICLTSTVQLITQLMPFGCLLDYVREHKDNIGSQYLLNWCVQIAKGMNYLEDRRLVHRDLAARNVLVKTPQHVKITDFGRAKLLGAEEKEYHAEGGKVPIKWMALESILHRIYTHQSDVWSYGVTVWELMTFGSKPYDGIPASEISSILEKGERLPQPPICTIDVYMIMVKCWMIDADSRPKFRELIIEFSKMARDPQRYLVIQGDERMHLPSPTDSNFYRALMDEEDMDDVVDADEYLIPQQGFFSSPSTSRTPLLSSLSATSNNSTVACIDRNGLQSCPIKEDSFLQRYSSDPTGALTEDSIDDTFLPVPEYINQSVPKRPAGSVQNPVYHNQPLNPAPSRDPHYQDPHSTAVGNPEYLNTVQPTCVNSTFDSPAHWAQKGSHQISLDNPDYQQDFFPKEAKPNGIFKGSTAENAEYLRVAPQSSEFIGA
Experiment: HTRF-based EGFR biochemical assay (L858R)
Conditions: 100 μM ATP, enzyme 0.1 nM
pIC50: −log10 of the molar value. Structures can show the parent of a compound that is named as a salt.
Endpoint: pIC50

Cc1c(-c2ccc(C3CCN(C)CC3)cc2)ccc2c1C(=O)N(C(c1nc3ccccc3[nH]1)c1cc(F)ccc1O)C2 (centres unmarked) [Compound 082, dihydrochloride]    8.52

[I] CN1CCC(c2ccc(-c3ccc4ncn(C(c5nc6ccccc6[nH]5)c5cc(F)ccc5O)c(=O)c4n3)cc2)CC1 (centres unmarked) [Compound 009, 2,2,2-trifluoroacetate]
[II] CN1CC(Oc2ccc(-c3ccc4c(c3)C(=O)N(C(c3nc5ccccc5[nH]3)c3cc(F)ccc3O)C4)cc2)C1 (centres unmarked) [Compound 056, dihydrochloride]
Please indicate which entry, I or II , has the lower recorded pIC50 value. Please respond with the label that marks your chosen entry. II

[A] CN1CCC(c2ccc(-c3ccc4cn(C(c5nc6ccccc6[nH]5)c5cc(F)ccc5O)nc4c3F)cc2)CC1 (centres unmarked) [Compound 034, hydrochloride]
[B] Cc1c[nH]c([C@H](c2cc(F)ccc2O)N2Cc3ccc(-c4ccc(C5CCN(C)CC5)cc4)cc3C2=O)n1 (single isomer, unassigned)
Please indicate which entry, A or B , has the lower recorded pIC50 value. Please respond with the label that marks your chosen entry. B

----------
Target: EGFR L858R (Homo sapiens (Human), UniProt P00533, L858R)
Experiment: HTRF-based EGFR biochemical assay (L858R)
Settings: 100 μM ATP, enzyme 0.1 nM
Counter-ions that a name gives are not always drawn.
Endpoint: pIC50
The meaning of pIC50 here: minus log10 of the concentration in molar units.

Would you please look over these solved cases?
CN1CCC2(c3ccc(-c4ccc5c(c4)C(=O)N(C(c4nc6ccccc6[nH]4)c4cc(F)ccc4O)C5)cc3)CC2C1 (stereo not shown) [Compound 079, dihydrochloride]    8.52
CN1CCC(c2ccc(-c3ccc4c(n3)C(=O)N([C@@H](c3nc5ccccc5[nH]3)c3cc(F)ccc3O)C4)cc2)CC1 (single isomer, unassigned)    8.52

For the next question, use this compound.
Entry under test: COc1ccc2[nH]c(C(c3cc(F)ccc3O)N3Cc4ccc(-c5ccc(C6CCN(C)CC6)cc5)cc4C3=O)nc2c1 (stereo not shown) . Its pIC50 was 7.46

----------
Molecular target: EGFR L858R/T790M (Homo sapiens (Human), UniProt P00533, L858R/T790M)
Test: HTRF-based EGFR biochemical assay (L858R/T790M)
Conditions: 100 μM ATP, enzyme 0.02 nM
pIC50: −log10 of the molar value. Structures can show the parent of a compound that is named as a salt.
Endpoint: pIC50

Would you please look over these solved cases?
CN1CCC(c2ccc(-c3ccc4cn(C(c5nc6ccccc6[nH]5)c5cc(F)ccc5O)nc4c3F)cc2)CC1 (stereo not drawn) [Compound 034, hydrochloride]    9.15
CN1CCC(c2ccc(-c3ccc4c(c3)C(=O)N(C(c3nc5ccccc5[nH]3)c3cc(F)ccc3O)C4)cc2)CC1 (stereo not drawn) [Compound 024, hydrochloride]    9.30
Cc1c[nH]c([C@@H](c2cc(F)ccc2O)N2Cc3ccc(-c4ccc(C5CCN(C)CC5)cc4)cc3C2=O)n1 (single isomer, unassigned)    8.70
CN1CCC(c2ccc(-c3cc(F)c4c(=O)n([C@@H](c5nc6ccccc6[nH]5)c5cc(F)ccc5O)ccc4c3)cc2)CC1 (single isomer, unassigned)    9.30
CN1CC(Oc2ccc(-c3ccc4c(c3)C(=O)N(C(c3nc5ccccc5[nH]3)c3cc(F)ccc3O)C4)cc2)C1 (stereo not drawn) [Compound 056, dihydrochloride]    8.10
CN1CCC(c2ccc(-c3ccc4ncn(C(c5ccccc5)c5nc6ccccc6[nH]5)c(=O)c4c3F)cc2)CC1 (stereo not drawn) [Compound 003, 2,2,2-trifluoroacetate]    8.70
O=C1c2cc(C#CCN3CCS(=O)(=O)CC3)ccc2CN1C(c1nc2ccccc2[nH]1)c1cc(F)ccc1O (stereo not drawn) [Compound 013, hydrochloride]    7.48
Cc1c[nH]c([C@@H](c2cc(F)ccc2O)N2Cc3ccc(-c4ccc(C5CCN(C)CC5)cc4)c(F)c3C2=O)n1 (single isomer, unassigned)    8.70
CN1CCC(c2ccc(-c3cc4ccn(C(c5nc6ccccc6[nH]5)c5cc(F)ccc5O)c(=O)c4cc3F)cc2)CC1 (stereo not drawn)    7.85
CN1CCC(c2ccc(-c3ccc4c(c3)C(=O)N([C@H](c3nc5ccccc5[nH]3)c3cc(F)ccc3O)C4)cc2)CC1 (single isomer, unassigned) [Compound 037]    9.30

[P] CN1CCC(c2ccc(-c3ccc4c(c3)C(=O)N(C(c3cccc(F)c3)c3nc5cccnc5[nH]3)C4)cc2)CC1 (stereo not drawn)
[Q] COc1ccc(F)cc1C(c1nc2ccccc2[nH]1)n1cc2ccc(-c3ccc(C4CCN(C)CC4)cc3)c(F)c2n1 (stereo not drawn)
[R] Cc1nc(C(c2cc(F)ccc2O)N2Cc3ccc(-c4ccc(C5CCN(C)CC5)cc4)cc3C2=O)[nH]c1C (stereo not drawn)
[S] CN1CCC(c2ccc(-c3ccc4ncn(C(c5ccccc5)c5nc6ccccc6[nH]5)c(=O)c4c3)cc2)CC1 (stereo not drawn)
[T] CN1CCC(c2ccc(-c3ccc4c(=O)n(C(c5nc6ccccc6[nH]5)c5cc(F)ccc5O)cc(F)c4c3)cc2)CC1 (stereo not drawn) [Compound 053, hydrochloride]
Please order the records by their reported pIC50, lowest number first. Lab note: final answer is the ordered label list. Q, R, P, S, T
(Q: 7.38, R: 7.60, P: 7.96, S: 8.40, T: 9.00)

[1] Cc1cnc(C(c2cc(F)ccc2O)N2Cc3ccc(-c4ccc(C5CCN(C)CC5)cc4)c(F)c3C2=O)[nH]1 (stereo not drawn)
[2] COc1cc2cn(C(c3nc4ccccc4[nH]3)c3cc(F)ccc3O)nc2cc1-c1ccc(C2CCN(C)CC2)cc1 (stereo not drawn)
[3] Cc1c[nH]c(C(c2cc(F)ccc2O)N2Cc3ccc(-c4ccc(C5CCN(C)CC5)cc4)cc3C2=O)n1 (stereo not drawn)
[4] CN1CCC(c2ccc(-c3ccc4c(=O)n([C@H](c5nc6ccccc6[nH]5)c5cc(F)ccc5O)ccc4c3)cc2)CC1 (single isomer, unassigned) [Compound 068]
hey, can you rank those compounds up there by pIC50? biggest number first please Lab note: final answer is the ordered label list. 1, 2, 3, 4

[P] Cc1cc2cn(C(c3nc4ccccc4[nH]3)c3cc(F)ccc3O)nc2cc1-c1ccc(C2CCN(C)CC2)cc1 (stereo not drawn) [Compound 098, dihydrochloride]
[Q] CN1CCC(c2ccc(-c3ccc4c(=O)n([C@H](c5nc6ccccc6[nH]5)c5cc(F)ccc5O)ccc4c3)cc2)CC1 (single isomer, unassigned) [Compound 115]
For the two items P and Q , which reports the higher pIC50 value? Please respond with the label that marks your chosen entry. P
